# IC50 annotations
- Study Target: full-length beta-Catenin (Uniprot ID P35222) (Homo sapiens (Human)) (UniProt P35222)
- Sequence (P35222 2-781 limits assumed): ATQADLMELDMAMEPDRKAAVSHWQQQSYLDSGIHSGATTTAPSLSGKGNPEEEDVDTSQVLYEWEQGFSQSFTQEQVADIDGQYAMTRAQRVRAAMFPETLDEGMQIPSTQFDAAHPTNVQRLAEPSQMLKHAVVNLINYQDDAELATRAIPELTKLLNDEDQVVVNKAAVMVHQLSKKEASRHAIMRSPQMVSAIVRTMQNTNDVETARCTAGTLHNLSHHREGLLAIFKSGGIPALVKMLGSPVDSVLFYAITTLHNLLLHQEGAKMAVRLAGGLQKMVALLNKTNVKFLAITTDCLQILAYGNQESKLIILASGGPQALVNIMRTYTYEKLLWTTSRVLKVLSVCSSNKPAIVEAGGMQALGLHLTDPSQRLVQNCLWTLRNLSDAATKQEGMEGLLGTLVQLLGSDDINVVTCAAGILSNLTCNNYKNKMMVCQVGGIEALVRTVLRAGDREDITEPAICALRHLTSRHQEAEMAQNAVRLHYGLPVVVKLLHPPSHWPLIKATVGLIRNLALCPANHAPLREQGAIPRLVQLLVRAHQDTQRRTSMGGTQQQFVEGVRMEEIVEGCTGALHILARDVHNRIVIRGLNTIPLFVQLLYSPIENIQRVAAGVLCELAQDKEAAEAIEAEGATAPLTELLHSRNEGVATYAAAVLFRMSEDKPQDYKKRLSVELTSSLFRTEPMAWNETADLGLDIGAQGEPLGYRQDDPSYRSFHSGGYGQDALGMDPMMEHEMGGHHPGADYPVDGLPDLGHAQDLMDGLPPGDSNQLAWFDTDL
- Experimental Protocol: fluorescence polarization competition; full-length beta-catenin, competitor 5FAM-TCF4(10-53) probe
Starred links: 1 amine or outer side, 2 acyl side, 3 side chain; linkers in the order of their positions; H or OH if unused. Positions of bridges follow the written chain, without caps; N, C: chain ends. Non-standard residues stand in square brackets, D forms with d. Primed or numbered codes have the meaning given here. *: point of attachment. PyrS2″ = (S)-3-amino-1-((pent-4-en-1-yloxy)carbonyl)pyrrolidine-3-carboxylic acid (stapling residue), C=CCCCOC(=O)N1CC[C@@](N[*:1])(C(=O)[*:2])C1; B5(5) = 2,2-bis(4-pentenyl)glycine, 2-amino-2-(pent-4-en-1-yl)hept-6-enoic acid (stitching residue), C=CCCCC(CCCC=C)(N[*:1])C(=O)[*:2]; PyrS2 = (S)-3-amino-1-((pent-4-en-1-yloxy)carbonyl)pyrrolidine-3-carboxylic acid, C=CCCCOC(=O)N1CC[C@@](N[*:1])(C(=O)[*:2])C1; B5(3) = 2,2-bis(4-pentenyl)glycine (stitching residue), C=CCCCC(CCCC=C)(N[*:1])C(=O)[*:2]; Phe(3-COOH) = N[C@@H](Cc1cccc(C(=O)O)c1)C(=O)O; Phe(2-CF3) = N[C@@H](Cc1ccccc1C(F)(F)F)C(=O)O; Phe(2-Cl) = N[C@@H](Cc1ccccc1Cl)C(=O)O; Bta = N[C@@H](Cc1csc2ccccc12)C(=O)O; αAllylPro = C=CC[C@@]1(C(=O)O)CCCN1; tBuAla = CC(C)(C)C[C@H](N)C(=O)O; 3Thi = N[C@@H](Cc1ccsc1)C(=O)O; Aib = CC(C)(N)C(=O)O; Moc = COC(=O)*
Quantity: IC50 (nM)

* Moc-[αAllylPro]D[tBuAla][B5(3)]D[Phe(3-COOH)]AAFL[PyrS2″][Phe(2-Cl)][Bta]A-NH2 (staple 1-4, 4-11) [I-2324] | 83
* Ac-[αAllylPro]D[tBuAla][B5(5)]D[Phe(3-COOH)]AAFL[PyrS2][Phe(2-CF3)][Bta]QFA-NH2 (staple 1-4, 4-11) [I-2400] | 142
* Ac-[αAllylPro]D[tBuAla][B5(5)]D[Phe(3-COOH)]AAFL[PyrS2][Phe(2-CF3)][Bta]QL[dL]-NH2 (staple 1-4, 4-11) [I-2396] | 187
* Ac-[αAllylPro]D[tBuAla][B5(5)]NT[Aib]AFN[PyrS2″][3Thi][Bta]F-NH2 (staple 1-4, 4-11) [I-2412] | 267
